System tested: PI3Kα H1047R (T47D cells) (Homo sapiens, UniProt P42336, H1047R)
Construct: endogenous in cells; host or cells: T47D cells
Sequence (P42336 whole entry H1047R): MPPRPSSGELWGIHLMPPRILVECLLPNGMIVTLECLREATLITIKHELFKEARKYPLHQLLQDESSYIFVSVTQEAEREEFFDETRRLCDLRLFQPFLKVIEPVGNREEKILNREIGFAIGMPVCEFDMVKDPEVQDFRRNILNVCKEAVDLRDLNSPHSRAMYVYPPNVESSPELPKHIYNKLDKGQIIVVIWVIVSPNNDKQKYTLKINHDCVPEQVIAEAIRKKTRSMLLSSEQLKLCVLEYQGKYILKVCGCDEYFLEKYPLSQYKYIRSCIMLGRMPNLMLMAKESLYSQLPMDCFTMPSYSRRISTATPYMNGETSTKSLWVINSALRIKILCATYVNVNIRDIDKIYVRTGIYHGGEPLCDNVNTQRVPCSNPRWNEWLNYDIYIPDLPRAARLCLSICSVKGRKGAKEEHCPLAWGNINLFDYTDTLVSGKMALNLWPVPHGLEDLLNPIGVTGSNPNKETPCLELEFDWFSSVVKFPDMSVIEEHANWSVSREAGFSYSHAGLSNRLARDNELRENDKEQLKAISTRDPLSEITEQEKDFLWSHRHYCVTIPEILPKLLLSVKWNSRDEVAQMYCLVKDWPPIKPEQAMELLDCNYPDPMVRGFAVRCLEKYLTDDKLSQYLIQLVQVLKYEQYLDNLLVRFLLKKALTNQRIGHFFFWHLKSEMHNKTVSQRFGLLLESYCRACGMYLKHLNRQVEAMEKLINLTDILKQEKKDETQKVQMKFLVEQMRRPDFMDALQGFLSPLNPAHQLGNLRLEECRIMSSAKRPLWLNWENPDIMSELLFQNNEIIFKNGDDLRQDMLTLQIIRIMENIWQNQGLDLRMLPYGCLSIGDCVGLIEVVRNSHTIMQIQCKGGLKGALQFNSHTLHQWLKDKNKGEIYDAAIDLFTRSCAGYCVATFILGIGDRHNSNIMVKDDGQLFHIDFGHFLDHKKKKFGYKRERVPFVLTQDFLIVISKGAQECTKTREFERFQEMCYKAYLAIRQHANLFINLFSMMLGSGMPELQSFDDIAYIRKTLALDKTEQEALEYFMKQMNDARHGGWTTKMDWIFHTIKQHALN
Sequence (P27986 whole entry partner): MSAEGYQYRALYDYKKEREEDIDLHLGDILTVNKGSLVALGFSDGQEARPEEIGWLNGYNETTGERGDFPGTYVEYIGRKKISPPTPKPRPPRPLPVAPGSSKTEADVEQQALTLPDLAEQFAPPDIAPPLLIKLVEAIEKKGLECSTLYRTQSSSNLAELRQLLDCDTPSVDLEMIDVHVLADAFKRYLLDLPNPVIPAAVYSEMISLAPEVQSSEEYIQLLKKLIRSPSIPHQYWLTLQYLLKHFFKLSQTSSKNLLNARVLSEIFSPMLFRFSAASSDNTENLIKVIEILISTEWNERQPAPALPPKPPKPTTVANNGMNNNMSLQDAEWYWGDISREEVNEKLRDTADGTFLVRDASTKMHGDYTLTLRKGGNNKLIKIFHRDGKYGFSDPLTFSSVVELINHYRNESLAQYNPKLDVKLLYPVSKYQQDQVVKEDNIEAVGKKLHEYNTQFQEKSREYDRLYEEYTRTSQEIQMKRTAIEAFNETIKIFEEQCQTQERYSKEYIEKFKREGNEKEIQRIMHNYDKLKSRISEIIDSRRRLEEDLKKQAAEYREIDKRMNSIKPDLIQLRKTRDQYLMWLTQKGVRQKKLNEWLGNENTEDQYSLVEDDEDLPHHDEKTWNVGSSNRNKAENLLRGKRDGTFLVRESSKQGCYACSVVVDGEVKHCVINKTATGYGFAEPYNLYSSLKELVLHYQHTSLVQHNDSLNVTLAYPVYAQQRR
Assay name: PI3Kα cellular assay: pAKT HTRF in T47D cells after EGF stimulation
Type: cell-based
Recorded conditions: T47D cells (PI3Kα H1047R), pAKT S473 HTRF, 1 hr compound, 20 ng/ml EGF 10 min
Measured metric: IC50

Reference set (3 entries):
[[record]]
molecule = "Cc1cc([C@@H](C)Nc2c(F)cccc2C(=O)O)c2nc(N3CCOCC3)cc(=O)n2c1"
obs_value = "> 2000 nM"

[[record]]
molecule = "Cc1cc([C@H](C)Nc2ccccc2C(=O)O)c2nc(-c3ccc4c(c3)c(N)nn4C)cc(=O)n2c1 (single isomer, unassigned)"
obs_value = "< 100 nM"

[[record]]
molecule = "Cc1cc([C@@H](C)Oc2ccccc2C(N)=O)c2nc(N3CCOCC3)cc(=O)n2c1"
obs_value = "> 2000 nM"


Okay, now this molecule:
**Query** Please indicate IC50 recorded for Cc1cc([C@@H](C)Nc2ccccc2C(=O)O)c2nc(N3CCCCC3)cc(=O)n2c1
**Result** 100 to 500 nM

----------
# pIC50 annotations
System tested: PI3Kα H1047R (T47D cells) (Homo sapiens, UniProt P42336, H1047R)
Construct: endogenous in cells; host or cells: T47D cells
Assay name: PI3Kα cellular assay: pAKT HTRF in T47D cells after EGF stimulation
Assay type: cell-based
Recorded conditions: T47D cells (PI3Kα H1047R), pAKT S473 HTRF, EGF stimulation
pIC50: −log10 of the molar value.

Reference set (4 entries):
[[record]]
compound = "Cc1cc([C@@H](C)Nc2ccccc2C(=O)O)c2nc(-c3cc4c(N)nn(C)c4cc3C)cc(=O)n2c1"
obs_value = "< 5.70"

[[record]]
compound = "Cc1cc([C@@H](C)Nc2ccccc2C(=O)O)c2nc(-c3ccc4c(c3)c(C(F)(F)F)nn4C)cc(=O)n2c1"
obs_value = "6.30 to 7.00"

[[record]]
compound = "Cc1cc([C@@H](C)Nc2ccccc2C(=O)O)c2nc(C3CCN(S(N)(=O)=O)CC3)cc(=O)n2c1"
obs_value = "< 5.70"

[[record]]
compound = "Cc1cc([C@@H](C)Nc2ccccc2C(=O)O)c2nc(OC3CCOCC3)c(C)c(=O)n2c1 (single isomer, unassigned)"
obs_value = "< 5.70"


**Query** Please indicate pIC50 recorded for Cc1cc([C@@H](C)Nc2ccccc2S(N)(=O)=O)c2nc([C@@H]3CCCN(CC(F)F)C3)c(C)c(=O)n2c1
**Result** 5.70 to 6.30

**Query** Please indicate pIC50 recorded for Cc1cc([C@H](C)Nc2ccccc2C(=O)O)c2nc(-c3c(C)ccc4[nH]ncc34)cc(=O)n2c1
**Result** < 5.70

**Query** Please indicate pIC50 recorded for Cc1cc([C@@H](C)Nc2ccccc2C(=O)O)c2nc(-c3cnc4c(c3)c(C)nn4C)cc(=O)n2c1 (single isomer, unassigned)
**Result** > 7.00

**Query** Please indicate pIC50 recorded for Cc1cc([C@@H](C)Oc2ccccc2C(=O)O)c2nc(-c3cccc(F)c3)c(C)c(=O)n2c1
**Result** < 5.70

**Query** Please indicate pIC50 recorded for Cc1cc(C(C)CNc2ccccc2C(=O)O)c2nc(N3CCOCC3)cc(=O)n2c1 (stereo not shown)
**Result** < 5.70

**Query** Please indicate pIC50 recorded for Cc1cc(C(C)Nc2ccccc2C(=O)O)c2nc(-c3ccc4c(c3)c(C)nn4C)cc(=O)n2c1 (stereo not shown)
**Result** > 7.00

----------
System tested: PI3Kα H1047R (T47D cells) (Homo sapiens, UniProt P42336, H1047R)
Construct: endogenous in cells; host or cells: T47D cells
Assay name: PI3Kα cellular assay: pAKT HTRF in T47D cells after EGF stimulation
Assay type: cell-based
Recorded conditions: selectivity T47D (H1047R) over SKBR3 (WT), pAKT HTRF
Protocol: SKBR3 or T47D cells are seeded in DMEM containing 10% FBS at 25k cells/well into 96-well cell culture format. […] 384 well plate is left overnight at room temperature before reading HTRF on an Envision plate reader. ND denotes value not determined with that assay for the specified compound; • for T47D (H1047R) selectivity over SKBR3 (WT): A denotes >20-fold; B denotes 20-fold≥value>5-fold; C denotes ≤5-fold. […] ND denotes value not determined with that assay for the specified compound.
Measured metric: T47D pAKT S473 HTRF IC50 (H1047R): T47D (H1047R) selectivity over SKBR3 (WT)

Reference set (4 entries):
[[record]]
compound = "Cc1cc(C(C)Nc2ccccc2C(=O)O)c2nc(-c3ccc(CN4CCN(C(=O)C5CC5)CC4)c(F)c3)cc(=O)n2c1 (single isomer, unassigned) [Compound 420]"
system_tested = "PI3Kα H1047R (T47D cells) (Homo sapiens, UniProt P42336, H1047R)"
obs_value = "A (A denotes >20-fold)"

[[record]]
compound = "Cc1cc([C@@H](C)Nc2ccccc2C(=O)O)c2nc(-c3ccc(CC4CCN(C(=O)C5CC5)CC4)c(F)c3)c(C)c(=O)n2c1 [Compound 1314]"
system_tested = "PI3Kα H1047R (T47D cells) (Homo sapiens, UniProt P42336, H1047R)"
obs_value = "A (A denotes >20-fold)"

[[record]]
compound = "C=CC(=O)Nc1ccc(C(=O)O)c(N[C@@H](C)c2cc(C)cn3c(=O)c(C)c(N4Cc5ccccc5C4)nc23)c1 [Compound 1122]"
system_tested = "PI3Kα H1047R (T47D cells) (Homo sapiens, UniProt P42336, H1047R)"
obs_value = "C (C denotes ≤5-fold)"

[[record]]
compound = "COc1cc(-c2nc3c([C@@H](C)Nc4ccccc4C(=O)O)cc(C)cn3c(=O)c2C)cn2ncc(C#N)c12 [Compound 1291]"
system_tested = "PI3Kα H1047R (T47D cells) (Homo sapiens, UniProt P42336, H1047R)"
obs_value = "A (A denotes >20-fold)"


**Query** Please indicate T47D pAKT S473 HTRF IC50 (H1047R): T47D (H1047R) selectivity over SKBR3 (WT) recorded for Cc1cc(C(C)Nc2ccccc2C(=O)O)c2nc(C3CCN(CC(F)F)CC3)cc(=O)n2c1 (stereo not drawn) [Compound 1308]
**Result** A (A denotes >20-fold)

**Query** Please indicate T47D pAKT S473 HTRF IC50 (H1047R): T47D (H1047R) selectivity over SKBR3 (WT) recorded for Cc1cc([C@@H](C)Nc2ccccc2C(=O)O)c2nc(-c3ccc(C4CCC(C(=O)C5CC5)CC4)c(F)c3)c(C)c(=O)n2c1 (stereo partly drawn) [Compound 1318]
**Result** C (C denotes ≤5-fold)

**Query** Please indicate T47D pAKT S473 HTRF IC50 (H1047R): T47D (H1047R) selectivity over SKBR3 (WT) recorded for Cc1cc([C@H](C)Nc2ccccc2CC(=O)O)c2nc(N3CCOCC3)cc(=O)n2c1 [Compound 158]
**Result** C (C denotes ≤5-fold)

----------
# pIC50 annotations
System tested: PI3Kα H1047R (T47D cells) (Homo sapiens, UniProt P42336, H1047R)
Construct: endogenous in cells; host or cells: T47D cells
Assay name: PI3Kα cellular assay: pAKT HTRF in T47D cells after EGF stimulation
Format: cell-based
Recorded conditions: T47D cells (PI3Kα H1047R), pAKT S473 HTRF, 1 hr compound, 20 ng/ml EGF 10 min
pIC50: −log10 of the molar value.

Reference set (5 entries):
[[record]]
compound = "CC(=O)N1CCC(c2cc(=O)n3cc(C)cc(C(C)Nc4ccccc4C(=O)O)c3n2)CC1 (stereo not drawn)"
measured_metric = "pIC50"
obs_value = "< 5.70"

[[record]]
compound = "Cc1cc(C(C)Nc2ccccc2C(=O)O)c2nc(N3CCC4(CC3)CNC4=O)cc(=O)n2c1 (stereo not drawn)"
measured_metric = "pIC50"
obs_value = "< 5.70"

[[record]]
compound = "Cc1cc(C(C)Nc2ccccc2S(N)(=O)=O)c2nc(-c3cc(C)c4oc(=O)[nH]c4c3)cc(=O)n2c1 (stereo not drawn) [Compound 570]"
measured_metric = "pIC50"
obs_value = "6.30 to 7.00"

[[record]]
compound = "Cc1cc([C@H](C)Nc2ccccc2C(=O)O)c2nc(-c3ccccc3)cc(=O)n2c1"
measured_metric = "pIC50"
obs_value = "> 7.00"

[[record]]
compound = "Cc1cc(C(C)Nc2ccccc2S(N)(=O)=O)c2nc(-c3ccncc3)cc(=O)n2c1 (stereo not drawn)"
measured_metric = "pIC50"
obs_value = "5.70 to 6.30"


**Query** Please indicate pIC50 recorded for CCC(Nc1ccccc1C(=O)O)c1cc(C)cn2c(=O)cc(N3CCOCC3)nc12 (stereo not drawn)
**Result** 5.70 to 6.30

**Query** Please indicate pIC50 recorded for Cc1cc(C(C)Nc2ccccc2C#N)c2nc(N3CCOCC3)cc(=O)n2c1 (stereo not drawn)
**Result** < 5.70

**Query** Please indicate pIC50 recorded for Cc1cc([C@@H](C)Nc2ccccc2C(=O)O)c2nc(N3C[C@@H]4CC(F)(F)C[C@@H]4C3)cc(=O)n2c1 (single isomer, unassigned)
**Result** < 5.70

**Query** Please indicate pIC50 recorded for Cc1cc(C(C)Nc2ccccc2C(=O)O)c2nc(-c3ccc(S(N)(=O)=O)cc3)cc(=O)n2c1 (stereo not drawn)
**Result** 5.70 to 6.30
